// data source = patent EP1452542A2

# targetUnderTest: T1, human IgE; monoclonal antibody SE44 (human, UniProt P01854-1 1-428)
# T1 construct: domain: human e constant region; also called IgE (SE44); human monoclonal IgE (SE44)
# assayProtocol: BIAcore SPR, antibody captured via anti-human IgG, IgE SE44 3.125-25 nM in flow, 25°C

binder | kon (M⁻¹ s⁻¹)
reshaped human C21 antibody C21-Hay3/L3 (antibody, V domains shown) VH: QVQLVQSGAEVKKPGASVKVSCKASGYTFSMYWLEWVRQAPGQRLEWMGEISPGTFTTNYNEKFKARATFTADTSASTAYMELSSLRSEDTAVYYCARFSHFSGSNYDYFDYWGQGTLVTVSS VL: EIVLTQSPGTLSLSPGERATLSCRASQSIGTNIHWYQQKPGQAPRLLIKYASESISGIPSRFSGSGSGTDFTLTISRLEPEDFAMYYCQQSDSWPTTFGQGTKVEIK | 260000
